Cited source for all entries: PubChem BioAssay AID1508601

assay: nuclear p53 accumulation, HPV+ cells – imaging, p53-positive nuclei imaging, 24 h, 48 h (AID 1508601); conditions: 24/48 h, measured here: cell number at 24 h, Library stock concentration: 500 nM
About 85 (1%) of roughly 5,700 compounds were called active. The full list was thinned out, with actives kept by preference.
Assignment: determine reported nuclei count, normalised for the given compounds.
Report the value in % with no unit label.

Asked: Find the recorded nuclei count, normalised belonging to CCCCCCCCCCCCCC=CC(O)C(CO)N(C)C (stereo unspecified) and report it.
Given back: 120

Asked: Now this one: "O=C(O)c1ccccc1SC1=NS(=O)(=O)c2ccccc21"
Given back: 117

Asked: Would you kindly repeat that for "CN(NC(=O)CC(=O)NN(C)C(=S)c1ccccc1)C(=S)c1ccccc1" ?
Given back: 98.9

Asked: Please give the result for CN(C)CCC(CSc1ccccc1)Nc1ccc(S(=O)(=O)NC(=O)c2ccc(N3CCN(Cc4ccccc4-c4ccc(Cl)cc4)CC3)cc2)cc1[N+](=O)[O-] (stereo unspecified) too.
Given back: 120

Asked: Now the compound "COC(=O)C#Cc1ccc([N+](=O)[O-])cc1"
Given back: 110

Asked: What about CC(=O)NC(CSC(=S)NSc1ccc(SNC(=S)SCC(NC(C)=O)C(=O)O)cc1)C(=O)O (stereo unspecified) ?
Given back: 115

----------
target: Cellular tumor antigen p53 (Homo sapiens); assay: nuclear p53 accumulation, HPV+ cells – imaging, p53-positive nuclei imaging, 24 h, 48 h (AID 1508601); settings: 24/48 h, Library stock concentration: 400 uM, stronger effect = higher value
The campaign covered roughly 5,700 compounds. About 85 (1%) were called active. The sample holds actives, similar compounds and a random draw of the others, so the mix is not that of the screen.
Answer each item with its documented p53-positive nuclei, normalised.

Asked: Reported p53-positive nuclei, normalised for COC(=O)c1c(NC(=O)CC2SC(=N)NC2=O)sc(C)c1C (stereo not given) : what is it?
Given back: -0.126% (inactive)

Asked: Now the same for "CCN1CCN(Cc2ccc(Nc3ncc4c(n3)N(C)c3ccccc3C(=O)N4C)cc2C(F)(F)F)CC1"
Given back: -0.051% (inactive)

Asked: Another molecule: "O=C(C=Cc1cccc(S(=O)(=O)Nc2ccccc2)c1)NO"
Given back: 0.535% (inactive)

Asked: And then "O=C1NCCCc2c1oc1ccc(O)cc21" , what is it?
Given back: -0.0299% (inactive)

Asked: Can you handle "COc1cc(OC)cc(-c2ccc3ncc4ccc(=O)n(-c5ccc(N6CCNCC6)c(C(F)(F)F)c5)c4c3c2)c1" next?
Given back: 0.257% (inactive)

Asked: Also need "CN1CCN(C(=S)SSC(=S)N2CCN(C)CC2)CC1" , thanks.
Given back: -0.138% (inactive)

Asked: Entry O=C(O)CCCC=CCC1C(O)CC(O)C1C=CC(O)COc1cccc(Cl)c1 (stereo not given) please
Given back: -0.108% (inactive)

Asked: Would you mind doing "CCC(=O)N1CCN(c2ccc(-n3c(=O)ccc4cnc5ccc(-c6cnc7ccccc7c6)cc5c43)cc2C(F)(F)F)CC1" as well?
Given back: -0.0367% (inactive)

Asked: Param item: "COc1ccc2nc3ccc(OC)cc3c(SCCCN)c2c1"
Given back: -0.0191% (inactive)

Asked: Next molecule: "COc1ccc(Cn2ccc3ccc(C(=O)NO)cc32)cc1"
Given back: -0.0148% (inactive)

----------
test: nuclear p53 accumulation, HPV+ cells – imaging, p53-positive nuclei imaging, 24 h, 48 h (AID 1508601); conditions: 24/48 h, measured here: cell number at 48 h, Library stock concentration: 3.33 mM
In all, about 5,700 compounds went through this assay and about 85 (1%) were called active. The entries come from a sample that favours actives as a whole.
I'd appreciate it if you could supply nuclei count, normalised values for the items below.
Report the figure in % without appending any unit label.

Asked: Could you tell me which nuclei count, normalised is on file for CC(O)[C@H]1C(=O)N2C(C(=O)OCOC(=O)C(C)(C)C)=C(SC3CN(C4=NCCS4)C3)C(C)[C@@H]12 (stereo not given in full) ?
Given back: 101

Asked: Same again, this time with Cc1cn(C2OC(CO)C(O)C2F)c(=O)[nH]c1=O (stereo not given)
Given back: 103

Asked: What do you have for "Cn1cc(C2=C(c3cn(CCCSC(=N)N)c4ccccc34)C(=O)NC2=O)c2ccccc21" ?
Given back: 63.6

Asked: Would you kindly repeat that for "COc1cc2ncc(-c3ccccc3)nc2cc1OC" ?
Given back: 45.1

Asked: Here is the next compound: N=c1ccn2c(n1)OC1C(O)C(CO)OC12 (stereo not given)
Given back: 51.8

Asked: Also "CN(NC(=O)CC(=O)NN(C)C(=S)c1ccccc1)C(=S)c1ccccc1" , if possible.
Given back: 44.1

Asked: Cool, now "CN(C)CCCn1cc(C2=C(c3c[nH]c4ccccc34)C(=O)NC2=O)c2ccccc21"
Given back: 105

Asked: Entry "C[C@]1(C(=O)Nc2ccc(F)nc2)CCCN1c1nc(Nc2cc(C3CC3)[nH]n2)c2cccn2n1" please
Given back: 30.3

Asked: Cool, now "O=C(Cc1ccc(-c2ccc(OCCN3CCOCC3)cc2)cn1)NCc1ccccc1"
Given back: 30.8

Asked: Try this compound too: O=C(Nc1ccccc1Br)NC1CCN(c2ccc(C(F)(F)F)cn2)C1 (stereo not given)
Given back: 96.3

Asked: Entry COc1ccc(CC(NC(=O)C(C)NC(=O)CN2CCOCC2)C(=O)NC(Cc2ccccc2)C(=O)[C@]2(C)CO2)cc1 (stereo not given in full) please
Given back: 38.7

Asked: # repeat for CC(C)c1nc(CN(C)C(=O)NC(CCN2CCOCC2)C(=O)NC(CCC(Cc2ccccc2)NC(=O)OCc2cncs2)Cc2ccccc2)cs1 (stereo not given)
Given back: 96.3

Asked: Entry to check: "C=CC(=O)Nc1cccc(Oc2nc(Nc3ccc(N4CCN(C)CC4)cc3)ncc2Cl)c1"
Given back: 64.3

Asked: Subsequent entry: CC(C)CC(CC(=O)NO)C(=O)NC(Cc1ccc2ccccc2c1)C(=O)NC(C)C(=O)NCCN (stereo not given)
Given back: 104

Asked: Also, CNC(=O)C(c1ccccc1)N1CCc2cc(OC)c(OC)cc2C1CCc1ccc(C(F)(F)F)cc1 (stereo not given) please.
Given back: 104

Asked: Input "CCc1c2c(nc3ccc(OC(=O)N4CCC(N5CCCCC5)CC4)cc13)-c1cc3c(c(=O)n1C2)COC(=O)[C@@]3(O)CC"
Given back: 30.6

Asked: Follow-up entry: COC1C[C@H]2CCC(C)[C@@](O)(O2)C(=O)C(=O)N2CCCC[C@H]2C(=O)OC(C(C)CC2CCC(OP(C)(C)=O)C(OC)C2)CC(=O)C(C)C=C(C)C(O)C(OC)C(=O)C(C)CC(C)C=CC=CC=C1C (stereo not given in full)
Given back: 105

Asked: Same read-out for "CCCCc1nc2cc(C=CC(=O)NO)ccc2n1CCN(CC)CC" ?
Given back: 28.6

Asked: Same read-out for "O=C1CN2Cc3c(ccc(Cl)c3Cl)N=C2N1" ?
Given back: 24.8

Asked: Request: "CN(C)Cc1ccc(S(=O)(=O)n2ccc(C=CC(=O)NO)c2)cc1"
Given back: 84

----------
target: Cellular tumor antigen p53 (Homo sapiens) (UniProt P04637); assay: nuclear p53 accumulation, HPV+ cells – imaging, p53-positive nuclei imaging, 24 h, 48 h (AID 1508601); details: 24/48 h, measured here: p53 positive nuclei at 24 h, Library stock concentration: 10 mM, stronger effect = higher value
Sequence (P04637 whole entry, looked up): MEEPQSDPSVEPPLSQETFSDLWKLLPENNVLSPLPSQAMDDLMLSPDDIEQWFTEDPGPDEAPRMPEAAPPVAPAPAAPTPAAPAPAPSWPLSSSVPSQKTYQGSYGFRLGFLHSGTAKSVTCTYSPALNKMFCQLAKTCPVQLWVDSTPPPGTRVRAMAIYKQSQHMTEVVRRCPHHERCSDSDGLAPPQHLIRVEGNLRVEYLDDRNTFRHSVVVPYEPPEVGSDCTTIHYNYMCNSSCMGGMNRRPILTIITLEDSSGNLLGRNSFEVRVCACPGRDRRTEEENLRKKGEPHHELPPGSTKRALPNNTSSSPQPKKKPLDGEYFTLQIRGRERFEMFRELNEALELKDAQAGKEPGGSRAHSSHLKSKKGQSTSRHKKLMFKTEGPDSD
The campaign covered roughly 5,700 compounds. About 85 (1%) were called active. This is one part of a sample in which actives are shown more often than they occur.
measured property: p53-positive nuclei, normalised (%)
Numeric answer only, unit % assumed.

Asked: Param readout = p53-positive nuclei, normalised; param system = Cellular tumor antigen p53 (Homo sapiens) (UniProt P04637); param query = "Cn1cc(CNCC2CCN(c3ncc(C(=O)NO)cn3)CC2)c2ccccc21" ; response: value
Given back: 120

Asked: Try "CS(=O)(=O)c1cccc(CNc2nc(Nc3ccc4c(c3)CCC(=O)N4)ncc2C(F)(F)F)c1" next.
Given back: 0.847

Asked: Same lookup for "CCC(=O)N1CCN(c2ccc(-n3c(=O)ccc4cnc5ccc(-c6cnc7ccccc7c6)cc5c43)cc2C(F)(F)F)CC1" , please.
Given back: 0.768

Asked: Subsequent entry: "Cn1cc(C2=C(c3cn(CCCSC(=N)N)c4ccccc34)C(=O)NC2=O)c2ccccc21"
Given back: 47.3

Asked: Input CCC(C)C(NC(=O)C(C(C)CC)N(C)C(C)=O)C(=O)NC(C(=O)NC(CC(C)C)C(=O)[C@@]1(C)CO1)C(C)O (stereo not given in full)
Given back: 125

Asked: Also "O=C1SC(=Cc2ccc(OCc3cccc(B(O)O)c3)cc2)C(=O)N1Cc1ccc(F)cc1" ?
Given back: -0.0586

Asked: Try the molecule CC(C)C1C(=O)NC(CCCN=C(N)N)C(=O)NCC(=O)NC(CC(=O)O)C(=O)NC(Cc2ccccc2)C(=O)N1C (stereo not given)
Given back: -0.22

Asked: Entry CN1CCC(c2c(O)cc(O)c3c(=O)cc(-c4ccccc4Cl)oc23)C(O)C1 (stereo not given) please
Given back: 0.446

Asked: CN(CCC(Oc1ccc(-c2ccccc2)cc1)c1ccc(F)cc1)CC(=O)O (stereo not given) , same question.
Given back: -0.0944

Asked: Input "COc1ccc(Cn2ccc3ccc(C(=O)NO)cc32)cc1"
Given back: 0.0845

Asked: How about "COc1ccc(N(C(=O)Nc2c(C)cccc2C)c2cc(Nc3ccc(N4CCN(C)CC4)cc3OC)ncn2)c(OC)c1" ?
Given back: -0.0741

Asked: Note, next up: "COc1cc(=C2C=c3ccccc3=N2)[nH]c1=Cc1[nH]c(C)cc1C"
Given back: 137

Asked: Cc1cc(OCCCS(C)(=O)=O)cc(C)c1-c1cccc(COc2ccc3c(c2)OCC3CC(=O)O)c1 (stereo not given) , same question.
Given back: -0.0299

Asked: And the next one, "COc1ccc(-c2ccc3ncc4c(c3c2)n(-c2ccc(N3CCNCC3)c(C(F)(F)F)c2)c(=O)n4C)cn1" ?
Given back: -0.0446

Asked: Further, for "Nc1ncn([C@@H]2O[C@@H](CO)[C@H](O)[C@@H]2O)c(=O)n1" ?
Given back: 0.106

Asked: Also, "Cc1ccc(B(O)O)cc1" please.
Given back: -0.0984

Asked: Again, but for CN1CCC(c2c(O)cc(O)c3c(=O)cc(-c4ccccc4Cl)oc23)C1CO (stereo not given)
Given back: 6.32

Asked: And what about the molecule O=C(NOCC(O)CO)c1ccc(F)c(F)c1Nc1ccc(I)cc1F (stereo not given) ?
Given back: 0.0144

Asked: Continue with "c1cc(NCCc2c[nH]c3ccccc23)cc(Nc2ccncc2)c1"
Given back: -0.0614

Asked: Now this one: "C=CC(=O)N1CCc2ccc(-n3c(=O)ccc4cnc5ccc(-c6cnn(C)c6)cc5c43)cc21"
Given back: 0.0284
